Can you tell me % Specific Cell Lysis at 0.5 ug/mL for the items I'm about to list?
- target.desc: T1, human IL-12Rβ2 expressed on cells (human, UniProt Q99665 24-862)
- T1 sequence: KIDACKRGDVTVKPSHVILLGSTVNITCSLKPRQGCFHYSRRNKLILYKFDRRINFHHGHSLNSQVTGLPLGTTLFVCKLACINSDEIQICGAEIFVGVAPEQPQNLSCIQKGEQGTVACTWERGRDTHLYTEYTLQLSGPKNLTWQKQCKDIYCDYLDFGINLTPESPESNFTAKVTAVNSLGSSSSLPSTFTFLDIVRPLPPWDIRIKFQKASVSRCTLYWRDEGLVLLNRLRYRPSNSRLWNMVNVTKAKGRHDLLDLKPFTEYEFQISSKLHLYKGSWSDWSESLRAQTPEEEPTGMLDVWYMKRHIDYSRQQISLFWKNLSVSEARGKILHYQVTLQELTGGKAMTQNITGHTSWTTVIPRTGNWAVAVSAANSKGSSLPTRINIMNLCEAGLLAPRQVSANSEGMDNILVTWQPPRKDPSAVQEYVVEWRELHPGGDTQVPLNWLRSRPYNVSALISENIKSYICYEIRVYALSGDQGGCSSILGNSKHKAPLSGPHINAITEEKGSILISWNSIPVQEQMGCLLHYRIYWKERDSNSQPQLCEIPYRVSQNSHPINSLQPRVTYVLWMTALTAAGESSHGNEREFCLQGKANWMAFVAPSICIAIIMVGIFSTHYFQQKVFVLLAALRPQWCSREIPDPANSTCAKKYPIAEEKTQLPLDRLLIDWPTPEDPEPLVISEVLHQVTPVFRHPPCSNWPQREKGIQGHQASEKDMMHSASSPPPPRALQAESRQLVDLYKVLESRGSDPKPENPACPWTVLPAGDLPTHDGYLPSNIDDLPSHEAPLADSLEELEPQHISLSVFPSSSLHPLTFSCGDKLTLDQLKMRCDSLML
- experiment.notes: cell-based or functional assay
Write it as a number; the unit % goes unstated.

// query % Specific Cell Lysis at 0.5 ug/mL value for entry anti-IL-12Rβ2-VHH-FcDE clone 20407 (Fc fusion) QVQLQESGGGLVQPGGSLRLTCVASGFPFSTHAMSWVRQPPGKGREWISAINSGGDSTDYADSVMGRFTISRDNAKNTVYLQMNSLKSEDTAAYYCAKYEDCSDYDCSSRASWGQGTQVTVSSAPELLGGPDVFLFPPKPKDTLMISRTPEVTCVVVDVSHEDPEVKFNWYVDGVEVHNAKTKPREEQYNSTYRVVSVLTVLHQDWLNGKEYKCKVSNKALPAPEEKTISKAKGQPREPQVYTLPPSRDELTKNQVSLTCLVKGFYPSDIAVEWESNGQPENNYKTTPPVLDSDGSFFLYSKLTVDKSRWQQGNVFSCSVMHEALHNHYTQKSLSLSPGK 71.7

Continue with anti-IL-12Rβ2-VHH-FcDE clone 21060 (Fc fusion) QVQLQESGGGLVQAGGSLSLSCAASGSAFRLNFMGWYRQAPGKQRELVAAINSGGTEIYHDSVKGRFTISRDNADSTVWLQMNSLKPDDTAVYYCAADRGISWSKLAGGMDYWGKGTQVTVSSAPELLGGPDVFLFPPKPKDTLMISRTPEVTCVVVDVSHEDPEVKFNWYVDGVEVHNAKTKPREEQYNSTYRVVSVLTVLHQDWLNGKEYKCKVSNKALPAPEEKTISKAKGQPREPQVYTLPPSRDELTKNQVSLTCLVKGFYPSDIAVEWESNGQPENNYKTTPPVLDSDGSFFLYSKLTVDKSRWQQGNVFSCSVMHEALHNHYTQKSLSLSPGK 73.5

Continue with 20421-FcDE (Fc fusion) VHH-Fc chain: QVQLQESGGGLVQPGGSLRLSCAASGFTFSTYAMSWVRQAPGKGLEWVSAVNSGGLSTDYADSVEGRFTISRDDAKNMLFLQMNRLKPEDTARYYCAKYEDCSDYVCDRAGYWGQGTQVTVSSAPELLGGPDVFLFPPKPKDTLMISRTPEVTCVVVDVSHEDPEVKFNWYVDGVEVHNAKTKPREEQYNSTYRVVSVLTVLHQDWLNGKEYKCKVSNKALPAPEEKTISKAKGQPREPQVYTLPPSRDELTKNQVSLTCLVKGFYPSDIAVEWESNGQPENNYKTTPPVLDSDGSFFLYSKLTVDKSRWQQGNVFSCSVMHEALHNHYTQKSLSLSPGK 67.7
